- test system: GST-JAK2(808-1132) (Homo sapiens)
- Construct: GST-JAK2(808-1132); purchased Invitrogen (Carlsbad, USA) #4288
- Sequence (O60674 808-1132): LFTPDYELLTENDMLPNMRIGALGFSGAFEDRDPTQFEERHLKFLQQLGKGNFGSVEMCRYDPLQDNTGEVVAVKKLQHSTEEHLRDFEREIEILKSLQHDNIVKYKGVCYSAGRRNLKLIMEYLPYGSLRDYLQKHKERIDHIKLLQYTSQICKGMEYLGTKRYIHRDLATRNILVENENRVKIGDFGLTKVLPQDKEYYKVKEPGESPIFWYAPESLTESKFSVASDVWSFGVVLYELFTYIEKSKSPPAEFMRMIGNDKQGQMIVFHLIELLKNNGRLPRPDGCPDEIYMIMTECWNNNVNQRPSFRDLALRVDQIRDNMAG
- test: EPK JAK-family kinases profiling assay (Caliper mobility shift), JAK2
- Format: biochemical
- study conditions: ATP 20 μM, 1.8 nM kinase
- Method: All four kinases of the JAK-family kinases were used as purified recombinant GST-fusion proteins, containing the active kinase domains. GST-JAK1(866-1154), GST-JAK3(811-1124), and GST-TYK2(888-1187) were expressed and purified by affinity chromatography at the EPK biology unit. […] The terminated reactions were transferred to the Caliper LabChip 3000 reader and the turnover of each reaction was measured by determining the substrate/product ratio. […]
Recorded IC50 values for a group of compounds are listed next.
value kind: IC50

Fc1cc(-c2cccc3ncc(-c4cnn(C5CCOCC5)c4)nc23)cc(F)c1CN1CCOCC1 [Example 117] ... < 3 nM
Cc1cc(-c2cnc3cccc(-c4ccc(CN5CCS(=O)(=O)CC5)c(Cl)c4)c3n2)ccc1C(=O)N1CCCC1 [Example 67] ... < 3 nM
Cc1cc(-c2cnc3cccc(-c4cc(F)c(CN5CCOCC5)c(F)c4)c3n2)ccc1C(=O)N1CCOCC1 [Example 59] ... 20 nM
Cc1cc(-c2cccc3ncc(-c4ccc(C(=O)N5CCOCC5)c(C)c4)nc23)ccc1CN1CCS(=O)(=O)CC1 [Example 57] ... < 3 nM

###

- test system: GST-JAK1(866-1154) (Homo sapiens, UniProt P23458)
- Construct: GST-JAK1(866-1154); made in house
- Sequence (P23458 866-1154): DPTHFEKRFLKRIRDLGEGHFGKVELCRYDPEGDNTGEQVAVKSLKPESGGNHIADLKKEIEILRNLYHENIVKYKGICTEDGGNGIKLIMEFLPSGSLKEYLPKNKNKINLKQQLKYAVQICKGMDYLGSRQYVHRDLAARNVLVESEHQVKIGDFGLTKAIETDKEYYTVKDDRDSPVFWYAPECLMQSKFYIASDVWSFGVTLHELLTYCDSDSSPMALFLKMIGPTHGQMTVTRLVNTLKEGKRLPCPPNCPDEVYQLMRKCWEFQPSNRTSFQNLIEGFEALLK
- test: EPK JAK-family kinases profiling assay (Caliper mobility shift), JAK1
- Type: biochemical
- study conditions: ATP 40 μM, 50 nM kinase
pIC50: −log10 of the molar value.
Classification scheme (pIC50): LOW = under 6, MID = from 6 up to 7, HIGH = 7 and over

Cc1cc(-c2cccc3ncc(-c4c(C)nn(C5CCNCC5)c4C)nc23)ccc1CN1CCOCC1 ... LOW
Cc1cc(-c2cccc3ncc(-c4ccc(C(=O)N5CCOCC5)c(C)c4)nc23)ccc1CN1CCOCC1 ... LOW
CN(C)CCN(C)C(=O)c1ccc(-c2cnc3cccc(-c4cc(F)c(CN5CCOCC5)c(F)c4)c3n2)cn1 ... LOW
Cc1cc(-c2cccc3ncc(-c4ccc(C(=O)N5CCN(C)CC5)c(C)c4)nc23)ccc1CN1CCS(=O)(=O)CC1 ... MID
COc1cc(-c2cnc3cccc(-c4cc(F)c(CN5CCS(=O)(=O)CC5)c(F)c4)c3n2)ccc1OCCCN1CCOCC1 ... HIGH
CC(C)(O)C#Cc1cnc2cccc(-c3cc(F)c(CN4CCS(=O)(=O)CC4)c(F)c3)c2n1 ... MID
CN1CCN(C(=O)c2cc(-c3cnc4cccc(-c5cc(F)c(CN6CCOCC6)c(F)c5)c4n3)cn2C)CC1 ... HIGH

###

- test system: GST-JAK3(811-1124) (Homo sapiens, UniProt P52333)
- Sequence (P52333 811-1124): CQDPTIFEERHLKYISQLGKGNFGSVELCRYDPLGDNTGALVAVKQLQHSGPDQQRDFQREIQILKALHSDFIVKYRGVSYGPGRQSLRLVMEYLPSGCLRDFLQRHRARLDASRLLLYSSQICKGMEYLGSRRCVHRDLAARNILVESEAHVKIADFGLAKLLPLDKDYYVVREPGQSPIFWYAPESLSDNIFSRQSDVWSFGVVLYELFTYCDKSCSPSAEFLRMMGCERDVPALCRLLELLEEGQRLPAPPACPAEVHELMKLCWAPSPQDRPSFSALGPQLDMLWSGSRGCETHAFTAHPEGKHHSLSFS
Recorded IC50 values for a group of compounds are listed next.
value kind: IC50 (nM)

Cc1cc(-c2cnc3cccc(-c4ccc(CN5CCOCC5)c(F)c4)c3n2)ccc1C(=O)N1CCOCC1 [Example 58] ... 320
Cc1cc(-c2cnc3cccc(-c4ccc(CC(=O)N5CCS(=O)(=O)CC5)c(F)c4)c3n2)ccc1CN1CCOCC1 [Example 69] ... 890
Cc1cc(-c2cnc3cccc(-c4cc(F)c(CN5CCOCC5)c(F)c4)c3n2)ccc1C(=O)N1CCC(N(C)C)CC1 [Example 101] ... 1020
CN1CCN(c2ccc(-c3cnc4cccc(-c5cc(F)c(CN6CCS(=O)(=O)CC6)c(F)c5)c4n3)cn2)CC1 [Example 108] ... 2400
